# experiment: BSK_3C_uPAR: BioMAP Diversity Plus: 3C Assay for Urokinase-type plasminogen activator receptor (uPAR) Biomarker Activity (AID 2282998)
# recorded_conditions: BioMAP 3C HUVEC, uPAR biomarker ELISA; actives raise or lower the signal
The source made the active and inactive calls. The calls were made as follows: active = hit-call score of the fitted dose curve at least 0.9, where 1 is the maximum; inactive = score below 0.9.
Response enum: active, inactive

**Q:** Status in this test for COc1cc(OC)nc(NC(=O)NS(=O)(=O)c2ncccc2OCC(F)(F)F)n1 ?
**A:** inactive

**Q:** Look up the recorded call for CCN(CC)C(=O)C(C)Oc1cccc2ccccc12 (stereo unspecified) in this test.
**A:** inactive

**Q:** For CCN(CC)c1nc(C)cc(OP(=S)(OC)OC)n1 , what call appears in the results of this test?
**A:** inactive

**Q:** // return assay outcome for Nc1c(Cl)c(F)nc(OCC(=O)O)c1Cl
**A:** inactive

**Q:** Name the outcome recorded for CC(C)N1C(=O)N(c2ccccc2)CSC1=NC(C)(C)C in the assay.
**A:** active

**Q:** Could you check what this test reported for COCC(C)N(C(=O)CCl)c1c(C)csc1C (stereo unspecified) ?
**A:** inactive

---

# study_system: Estrogen receptor beta (Homo sapiens)
# experiment: OT_ER_ERbERb_0480: Odyssey Thera (OT) 8-hour HEK293T Protein-Complementation Assay for Estrogen Receptor-beta/-beta Homodimer (AID 2283357);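 also: active means signal gain over DMSO baseline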
Inconclusive results are not listed. Active and inactive are the calls of the source. The calls were made as follows: active = hit-call score of the fitted dose curve at least 0.9, where 1 is the maximum; inconclusive = response in the unintended direction; inactive = score below 0.9.
Thanks in advance; please answer with one of these: label 1 = active, label 0 = inactive

Use the examples below as a reference point.
[
  {
    "molecule": "COC(=O)NC(=S)Nc1ccccc1NC(=S)NC(=O)OC",
    "study_system": "Estrogen receptor beta (Homo sapiens)",
    "label_value": "label 0"
  },
  {
    "molecule": "CC(C)(C)C(=O)C(Oc1ccc(Cl)cc1)n1cncn1 (centres undefined)",
    "study_system": "Estrogen receptor beta (Homo sapiens)",
    "label_value": "label 0"
  }
]

**Q:** What was the test verdict on CC1(C)CCC(=Cc2ccc(Cl)cc2)C1(O)Cn1cncn1 (centres undefined) ?
**A:** label 0

**Q:** In this assay, the call recorded for CCN(CC)c1nc(C)cc(OP(=S)(OC)OC)n1 was what?
**A:** label 1

**Q:** Tell me the recorded outcome of this test for O=C(Nc1ccccc1-c1ccc(Cl)cc1)c1cccnc1Cl .
**A:** label 0

**Q:** Please indicate how the test categorized Cn1c(-c2ccccc2)cc(-c2ccccc2)[n+]1C .
**A:** label 0

**Q:** Recorded test call requested for COc1cc(Cl)c(OC)cc1Cl
**A:** label 0

**Q:** What call does the record list for CCN(CC)C(=O)C(C)Oc1cccc2ccccc12 (centres undefined) ?
**A:** label 0

**Q:** Dear colleague, could you share the recorded outcome for CC1(C)C(C(=O)OC(C#N)c2cccc(Oc3ccccc3)c2)C1(C)C (centres undefined) when you have a moment?
**A:** label 0

**Q:** Which outcome did this test record for the molecule CCCCC(O)(Cn1cncn1)c1ccc(Cl)cc1Cl (centres undefined) ?
**A:** label 0

**Q:** Please let me know the test result on file for COCc1cnc(C2=NC(C)(C(C)C)C(=O)N2)c(C(=O)O)c1 (centres undefined) .
**A:** label 0

**Q:** What did this assay record as the result for COP(=S)(OC)SCn1nnc2ccccc2c1=O ?
**A:** label 0
